# methodNotes: Metabolic stability and intrinsic clearance in human hepatocytes (with IVIVE)
# Assay type: in vitro ADME
# reportedConditions: Human hepatocytes
# Lookup of reported Hepatocyte Clint keyed by entry
endpointName: Hepatocyte Clint

| molecule | endpointName | observedValue |
| --- | --- | --- |
| CCc1c(C)nn2c(N)c(C#N)c(NCCc3ccn(C4COCC4CO)n3)nc12 (single isomer, unassigned; (-)) [Example 122b] | Hepatocyte Clint | < 4.1 µL/min/1e6 cells |
| Cc1cccc(CCNc2nc3c(C)c(C)nn3c(N)c2C#N)n1 [Example 13] | Hepatocyte Clint | < 8.2 µL/min/1e6 cells |
| CCc1c(C)nn2c(N)c(C#N)c(NCCc3ccn(C4(CO)CC4)n3)nc12 [Example 39] | Hepatocyte Clint | < 8.2 µL/min/1e6 cells |

---

# targetOrTestSystem: UniProtKB P29275
# Sequence (P29275 whole entry): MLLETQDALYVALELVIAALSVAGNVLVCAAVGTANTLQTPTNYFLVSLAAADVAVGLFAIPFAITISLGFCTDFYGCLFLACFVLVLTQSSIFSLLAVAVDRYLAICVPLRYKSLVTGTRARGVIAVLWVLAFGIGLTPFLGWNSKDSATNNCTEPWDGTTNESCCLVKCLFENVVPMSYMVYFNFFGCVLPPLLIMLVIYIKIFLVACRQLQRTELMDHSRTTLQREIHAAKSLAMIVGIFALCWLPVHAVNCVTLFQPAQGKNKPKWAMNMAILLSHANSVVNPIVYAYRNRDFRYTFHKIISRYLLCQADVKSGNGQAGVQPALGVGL
# methodNotes: A2bR antagonism IC50, cAMP TR-FRET in HEK-293 cells, high concentration of adenosine (30 μM);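 also: compounds preincubated 10 min with cells, then adenosine stimulation 30 min at room temperature in buffer with Rolipram 100 µM and EHNA 30 µM, TR-FRET read after 1 h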
# reportedConditions: A2BR IC50 (nM) (@30 μM Adenosine), HEK-293 cells expressing A2B receptor; agonist adenosine 30 μM; 2% HSA; inhibition of cAMP
Measured IC50 values are reported for all entries that follow.

| compound | u | IC50 |
| --- | --- | --- |
| Cc1nn2c(N)c(C#N)c(NCCc3ccn(CC4CC(O)C4)n3)nc2c1Cl (single isomer, unassigned; (-)) [Example 84] | nM | 4250 |
| CCc1c(C)nn2c(N)c(C#N)c(NCCc3cccn(CCOC)c3=O)nc12 | nM | 1550 |
| Cc1nn2c(N)c(C#N)c(NCCc3ccn(C4(CO)CC4)n3)nc2c1Cl | nM | 1770 |
| CCc1c(C)nn2c(N)c(C#N)c(NCCc3cc(C)n(C4COCC4CO)n3)nc12 (single isomer, unassigned) [Example 167] | nM | 700 |
| Cc1nn2c(N)c(C#N)c(NCCc3ccn(C4CCCC4CN)n3)nc2c1Cl (stereo not shown) | nM | 7850 |
| CCc1c(C)nn2c(N)c(C#N)c(NCCc3cccn(CC[S+](C)[O-])c3=O)nc12 (single isomer, unassigned; (+)) [Example 144a] | nM | 821 |
| CCc1c(C)nn2c(N)c(C#N)c(NCCc3ccn(C4CCC4CO)n3)nc12 (single isomer, unassigned; (-)) [Example 79] | nM | 586 |

---

# methodNotes: Pharmacokinetic study in dogs
# Format: in vivo, male Beagle dogs
# reportedConditions: male, Beagle, plasma, po; Dog, p.o, 10 mg/kg; read-out: Tmax (head Tma)
Here, each record is paired with measured Tmax data.

| givenSmiles | Tmax |
| --- | --- |
| Cc1cccc(CCNc2nc3c(C)c(C)nn3c(N)c2C#N)n1 | 30 min |
| CCc1c(C)nn2c(N)c(C#N)c(NCCc3ccn(C4(CO)CC4)n3)nc12 | 30 min |

---

# methodNotes: Pharmacokinetic study in mice
# Type: in vivo, CD1 mice
# reportedConditions: CD1, mouse, plasma, po, 100 mg/kg, p.o, 100 mg/kg, read-out: Cmax (head Co*/)
endpointName: Cmax (ng/mL)

| compound | endpointName | observedValue |
| --- | --- | --- |
| CCc1c(C)nn2c(N)c(C#N)c(NCCc3ccn(C4COCC4CO)n3)nc12 (single isomer, unassigned; (-)) [Example 122b] | Cmax | 13800 |
